Test system: ATH-8 cell line
Experiment: Compound was evaluated for cytotoxicity by HIV cytopathic effect assay performed with ATH8 cells at a concentration of 200(uM)
Type: functional, Homo sapiens

>  <compound>
Nc1ncnc2c1ncn2[C@H]1CC[C@@H](CO)O1

>  <target_of_assay>
ATH-8 cell line

>  <Cytotoxicity [%]>
0

$$$$
>  <compound>
Nc1nc(=O)n(C2CCC(CO)O2)cc1Br (stereo not given)

>  <target_of_assay>
ATH-8 cell line

>  <Cytotoxicity [%]>
0

$$$$
>  <compound>
Nc1ncnc2c1ncn2C1CCC(COP(=O)([O-])[O-])O1.[Na+].[Na+] (stereo not given)

>  <target_of_assay>
ATH-8 cell line

>  <Cytotoxicity [%]>
5

$$$$
>  <compound>
Cc1cn(C2CCC(COP(=O)([O-])[O-])O2)c(=O)[nH]c1=O.[Na+].[Na+] (stereo not given)

>  <target_of_assay>
ATH-8 cell line

>  <Cytotoxicity [%]>
10

$$$$
>  <compound>
Cc1cn([C@H]2C=C[C@@H](CO)O2)c(=O)[nH]c1=O

>  <target_of_assay>
ATH-8 cell line

>  <Cytotoxicity [%]>
6

$$$$

###

System: ATH-8 cell line
Assay: Compound was evaluated for cytotoxicity by HIV cytopathic effect assay performed with ATH8 cells at a concentration of 1(uM)
Assay type: functional, Homo sapiens

>  <compound>
Nc1ncnc2c1ncn2C1CCC(COP(=O)([O-])[O-])O1.[Na+].[Na+] (centres undefined)

>  <Cytotoxicity, %>
2

$$$$
>  <compound>
Nc1ncn(C2CCC(CO)O2)c(=O)n1 (centres undefined)

>  <Cytotoxicity, %>
13

$$$$
>  <compound>
Nc1ncnc2c1ncn2[C@H]1CC[C@@H](CO)O1

>  <Cytotoxicity, %>
0

$$$$
>  <compound>
Nc1nc(=O)n(C2CCC(CO)O2)cc1Br (centres undefined)

>  <Cytotoxicity, %>
14

$$$$

###

System: ATH-8 cell line
Assay: Compound was evaluated for cytotoxicity by HIV cytopathic effect assay performed with ATH8 cells at a concentration of 5(uM)
Format: functional, Homo sapiens

>  <compound>
Nc1ccn([C@H]2CC[C@@H](CO)O2)c(=O)n1

>  <Cytotoxicity>
0%

$$$$
>  <compound>
Nc1ncnc2c1ncn2C1CCC(COP(=O)([O-])[O-])O1.[Na+].[Na+] (centres undefined)

>  <Cytotoxicity>
10%

$$$$
>  <compound>
Nc1ncnc2c1ncn2[C@H]1CC[C@@H](CO)O1

>  <Cytotoxicity>
6%

$$$$
>  <compound>
Nc1nc(=O)n([C@@H]2CC[C@H](CO)O2)cc1F

>  <Cytotoxicity>
0%

$$$$

###

Each entry below lists one item and its recorded Protective effect value.
Experiment: Compound was evaluated for the protective effect against HTLV-III/LAV (HIV) pathogenesis at a concentration of 5(uM)
Assay type: functional
result_type: Protective effect (%)

>  <compound>
Nc1ncnc2c1ncn2C1CCC(COP(=O)([O-])[O-])O1.[Na+].[Na+] (centres undefined)

>  <unit_spec>
%

>  <quantitative_readout>
91

$$$$
>  <compound>
Nc1nc(=O)n([C@@H]2CC[C@H](CO)O2)cc1F

>  <unit_spec>
%

>  <quantitative_readout>
100

$$$$
>  <compound>
Nc1ncnc2c1ncn2[C@H]1CC[C@@H](CO)O1

>  <unit_spec>
%

>  <quantitative_readout>
98

$$$$
>  <compound>
Nc1ccn([C@H]2CC[C@@H](CO)O2)c(=O)n1

>  <unit_spec>
%

>  <quantitative_readout>
100

$$$$

###

System: ATH-8 cell line
Assay: Compound was evaluated for cytotoxicity by HIV cytopathic effect assay performed with ATH8 cells at a concentration of 100(uM)
Format: functional, Homo sapiens

>  <compound>
Nc1ncnc2c1ncn2C1CCC(COP(=O)([O-])[O-])O1.[Na+].[Na+] (centres undefined)

>  <Cytotoxicity (%)>
0

$$$$
>  <compound>
Cc1cn([C@H]2C=C[C@@H](CO)O2)c(=O)[nH]c1=O [STAVUDINE]

>  <Cytotoxicity (%)>
13

$$$$
>  <compound>
Nc1ncnc2c1ncn2[C@H]1CC[C@@H](CO)O1

>  <Cytotoxicity (%)>
0

$$$$
>  <compound>
Cc1cn(C2CCC(CO)O2)c(=O)nc1N (centres undefined)

>  <Cytotoxicity (%)>
44

$$$$

###

Test: Compound was evaluated for the protective effect against HTLV-III/LAV (HIV) pathogenesis at a concentration of 1(uM)
Assay type: functional

>  <compound>
Nc1ncnc2c1ncn2C1CCC(COP(=O)([O-])[O-])O1.[Na+].[Na+] (centres undefined)

>  <Protective effect / %>
25

$$$$
>  <compound>
Nc1ncn(C2CCC(CO)O2)c(=O)n1 (centres undefined)

>  <Protective effect / %>
16

$$$$
>  <compound>
Nc1nc(=O)n(C2CCC(CO)O2)cc1Br (centres undefined)

>  <Protective effect / %>
6

$$$$
>  <compound>
Nc1ncnc2c1ncn2[C@H]1CC[C@@H](CO)O1

>  <Protective effect / %>
42

$$$$

###

Catalogue of compounds with associated Cytotoxicity
System: ATH-8 cell line
Experiment: Compound was evaluated for cytotoxicity by HIV cytopathic effect assay performed with ATH8 cells at a concentration of 50(uM)
Format: functional, Homo sapiens
result_type: Cytotoxicity (%)

>  <compound>
Nc1ncnc2c1ncn2C1CCC(COP(=O)([O-])[O-])O1.[Na+].[Na+] (configuration not stated)

>  <target_of_assay>
ATH-8 cell line

>  <result_type>
Cytotoxicity

>  <quantitative_readout>
4

$$$$
>  <compound>
Nc1nc(=O)n([C@@H]2CC[C@H](CO)O2)cc1F

>  <target_of_assay>
ATH-8 cell line

>  <result_type>
Cytotoxicity

>  <quantitative_readout>
9

$$$$
>  <compound>
Nc1ncnc2c1ncn2[C@H]1CC[C@@H](CO)O1

>  <target_of_assay>
ATH-8 cell line

>  <result_type>
Cytotoxicity

>  <quantitative_readout>
0

$$$$
>  <compound>
Nc1ccn([C@H]2CC[C@@H](CO)O2)c(=O)n1

>  <target_of_assay>
ATH-8 cell line

>  <result_type>
Cytotoxicity

>  <quantitative_readout>
30

$$$$
>  <compound>
Nc1ncn(C2CCC(CO)O2)c(=O)n1 (configuration not stated)

>  <target_of_assay>
ATH-8 cell line

>  <result_type>
Cytotoxicity

>  <quantitative_readout>
62

$$$$
>  <compound>
Cc1cn(C2CCC(COP(=O)([O-])[O-])O2)c(=O)[nH]c1=O.[Na+].[Na+] (configuration not stated)

>  <target_of_assay>
ATH-8 cell line

>  <result_type>
Cytotoxicity

>  <quantitative_readout>
9

$$$$
>  <compound>
Cc1cn([C@H]2C=C[C@@H](CO)O2)c(=O)[nH]c1=O

>  <target_of_assay>
ATH-8 cell line

>  <result_type>
Cytotoxicity

>  <quantitative_readout>
8

$$$$
